Documented TGI across a set of molecules
Test system: UACC-62 melanoma
Assay: NCI tumour cell line growth inhibition, 48 h
Give the quantity in µM, number only.

molecule	system.name	TGI / µM
COc1cc(Cl)c(C)cc1NC(=O)c1cc2ccccc2cc1O	UACC-62 melanoma	8.14
NC(CSC(c1ccccc1)(c1ccccc1)c1ccc(Br)cc1)C(=O)O (stereo unspecified)	UACC-62 melanoma	17.4

*Q* Reported TGI, molecule CC1(C)CC(=O)C(/C=N/c2nc(-c3cccc([N+](=O)[O-])c3)cs2)=C(O)C1 : ____
*A* 42.2

====

Tested on: NCI-H522 lung
Experiment: NCI tumour cell line growth inhibition, 48 h; in the data active = GI50 below about 0.43 µM; inactive = the rest
Assign a class; possible classes are 1 = active, -1 = inactive

For orientation, consider the following solved cases.
compound	system.name	assigned.category
COc1cc(Nc2nccc(-c3cnn4ncccc34)n2)cc(OC)c1	NCI-H522 lung	1
Nc1c2c(c(O)c3c1=C(CO)C=N3)=NCCS2=O (centres undefined)	NCI-H522 lung	-1
NC(CSC(c1ccccc1)(c1ccccc1)c1ccc(Br)cc1)C(=O)O (centres undefined)	NCI-H522 lung	1

Now examine the next entry.
*Q* For this compound, state the assay outcome: O=C(Nc1ccc(-n2cc(-c3ccncc3)c(-c3ccc(Cl)c(O)c3)n2)cc1)c1ccc(Cl)c(C(F)(F)F)c1
*A* -1

====

System: HCT-15 colon
Assay: NCI tumour cell line growth inhibition, 48 h; in the data active = GI50 below about 0.43 µM; inactive = the rest
Select the matching outcome among TRUE = active, FALSE = inactive

Solved entries:
smiles.text	system.name	assigned.category
O=c1c(-c2nc3ccccc3[nH]2)cc2ccccc2n1Cc1cn(Cc2ccc(F)cc2)nn1	HCT-15 colon	TRUE
CCCCCCCCCCCC(=O)[O][Sn]([CH2]CCC)([CH2]CCC)[CH2]CCC	HCT-15 colon	TRUE

Then there is this compound:
*Q* # lookup: test call for O=[N+]([O-])c1ccc(N/N=C\c2ccc(O)cc2O)nc1
*A* FALSE

====

List of TGI values.
Tested on: SF-539 CNS
Test: NCI tumour cell line growth inhibition, 48 h
Unit µM implied. Number only.

Recorded results for 4 compounds are shown here.
compound	result.number
Oc1ccccc1/C=N/N1C(=S)N(c2ccccc2)C(=Nc2ccccc2)C1=Nc1ccccc1	17.9
COc1ccc(/C=N/C2=C(C#N)C(c3ccccc3)c3ccc4ccccc4c3O2)cc1 (stereo not given)	1.05
COc1ccc2nc3c(cc2c1)C(=O)CC(C(F)(F)F)C3 (stereo not given)	5.64
O=C(Nc1ccc(-n2cc(-c3ccncc3)c(-c3ccc(Cl)c(O)c3)n2)cc1)c1ccc(Cl)c(C(F)(F)F)c1	2.99

Below: the item to evaluate.
*Q* What is its TGI for SF-539 CNS? Entry: CC1(C)CC(=O)C(/C=N/c2nc(-c3cccc([N+](=O)[O-])c3)cs2)=C(O)C1
*A* 45.6

====

Test system: SF-539 CNS
Test: NCI tumour cell line growth inhibition, 48 h
endpoint: TGI

Before answering, review these 10 worked examples.
molecule	endpoint	result
O=C1CN2CCN(CC2)CC(=O)Nc2ccc(cc2)S(=O)(=O)c2ccc(cc2)NC(=O)CN2CCN(CC2)CC(=O)Nc2ccc(cc2)S(=O)(=O)c2ccc(cc2)N1	TGI	49.2 µM
Nc1nc(-c2ccccc2Cl)cc(-c2ccc(Cl)cc2Cl)n1	TGI	67 µM
COc1cccc(-c2nn(C)c3sc(C(=O)NCCN4CCN(c5ccccc5F)CC4)cc23)c1	TGI	> 100 µM
O=C(CCCN1CCC(Nc2ccc(F)cc2)(c2nnnn2C2CCCCC2)CC1)c1ccc(F)cc1	TGI	30.5 µM
COc1ccc(-n2cc(-c3ccc(F)cc3)[nH]c2=O)cc1OC	TGI	> 100 µM
Nc1ncnc2c1c(-c1ccc(Oc3ccccc3)cc1)nn2C[C@H]1SSC[C@H]1O	TGI	5.97 µM
NC1=C(O)/C(=N/NS(=O)(=O)c2ccccc2)C(c2cccc(Cl)c2)O1 (stereo unspecified)	TGI	> 81.8 µM
CCN(CC)[C@@H]1c2cc3c(cc2C(c2cc(OC)c(O)c(OC)c2)C2C(=O)CO[C@@H]21)OCO3 (stereo partly specified)	TGI	> 100 µM
[B]C(=O)NC(CC(C)C)C(=O)NC1c2ccsc2C(=O)C1O (stereo unspecified) (tested in a mixture with another compound)	TGI	> 100 µM
C=C(C=O)[C@@H]1CC=C(C=O)CC1	TGI	33.5 µM

*Q* # TGI lookup, item Nc1c(-c2ccc(-c3c(N)[n+]([O-])c4ccccc4[n+]3[O-])cc2)[n+]([O-])c2ccccc2[n+]1[O-]
*A* 18.2 µM

*Q* Okay, and COc1ccccc1NC(=O)C(=O)C(C#N)CC(C)(C)C=O (stereo unspecified) ?
*A* > 100 µM

====

Test system: RPMI-8226 leukemia
Test: NCI tumour cell line growth inhibition, 48 h
endpoint: TGI (µM)
Please respond with the number in µM and leave the unit unwritten.

Solved entries:
smiles.text	system.name	TGI [µM]
O=C1OCC(CN2CCC(n3c(=O)[nH]c4ccccc43)CC2)=C1c1ccccc1	RPMI-8226 leukemia	56.1
C[C@@H](Br)[C@@H]1CC[C@H]2c3[nH]c4ccccc4c3CCN2C1	RPMI-8226 leukemia	37.4
CO[C@]12C=C/C(=C(/C(=O)OCc3cccnc3)C(=O)CCCCCCCC[C@]3(OC)C=C/C(=C(/C(=O)OCc4cccnc4)C(=O)CCCCCCCC1)O3)O2	RPMI-8226 leukemia	0.927

*Q* Recorded TGI for COc1cc(Nc2nccc(-c3cnn4ncccc34)n2)cc(OC)c1 with RPMI-8226 leukemia, please?
*A* 0.388

====

Measured TGI, listed per entry.
Tested on: NCI-H226 lung
Assay: NCI tumour cell line growth inhibition, 48 h

compound	system.name	endpoint	result
COc1cc(CNC(=O)CCCCCCCCCCSC#N)ccc1O	NCI-H226 lung	TGI	37.8 µM
Nc1c(-c2ccc(-c3c(N)[n+]([O-])c4ccccc4[n+]3[O-])cc2)[n+]([O-])c2ccccc2[n+]1[O-]	NCI-H226 lung	TGI	45 µM
Nc1nc(-c2ccccc2Cl)cc(-c2ccc(Cl)cc2Cl)n1	NCI-H226 lung	TGI	> 100 µM
CCOC1=NC(C(F)(F)F)(C(F)(F)F)N=C(/N=C(/N)N(C)C(C(C)C)P(=O)(OC(C)C)OC(C)C)O1 (stereo not given)	NCI-H226 lung	TGI	> 100 µM
CC1(C)OC(=O)C(c2ccsc2)C(=O)O1	NCI-H226 lung	TGI	> 100 µM

// next entry
*Q* Which TGI value belongs to CCc1cc(Cc2cc(CC)cc(C(C)(C)C)c2O)c(O)c(C(C)(C)C)c1 ?
*A* 16.1 µM

====

Test system: SNB-75 CNS
Assay: NCI tumour cell line growth inhibition, 48 h
endpoint: TGI (µM)
Report the value in µM with no unit label.

Solved entries:
compound	uom	TGI
OC(c1cc2c(Cl)cc(Cl)cc2c2cc(C(F)(F)F)ccc12)C1CCCCN1 (stereo unspecified)	µM	3.36
O=[N+]([O-])c1cc(C2ON=C(c3ccccc3)N2C23CC4CC(CC(C4)C2)C3)ccc1Cl (stereo unspecified)	µM	93.6

API: the following record is the query input.
*Q* Return reported TGI; argument: C[C@H](N)C(=O)Nc1ccc(-c2nc3ccccc3s2)cc1Cl
*A* 34.8

====

Test system: K-562 leukemia
Assay: NCI tumour cell line growth inhibition, 48 h; in the data active = GI50 below about 0.43 µM; inactive = the rest
// one of True for active, False for inactive, no free text

Here's what some known entries look like.
smiles.text	assigned.category
Cc1cnc2n(c1=O)Cc1ccccc1CO2	False
COc1ccc2c(C(=O)NCCCCCC(=O)O)cc3cc4c(cc3c2c1)OCO4	False
COc1cc(Nc2nccc(-c3cnn4ncccc34)n2)cc(OC)c1	True
Nc1c(C(=O)Nc2cccc3ccccc23)sc2nc3c(cc12)CCCCCC3	True
COc1cc2c(cc1OC)-c1c(c3ccc([N+](=O)[O-])cc3c(=O)n1CCCBr)C2=O	False

Now examine the next entry.
*Q* Dear all, I need the recorded test outcome for CN(Cc1cccc(Cl)c1)c1ccc(CO)c(Cl)c1 , thank you.
*A* False

====

Tested on: IGROV1 ovarian
Assay: NCI tumour cell line growth inhibition, 48 h
endpoint: TGI

Worked cases, answers included:
compound	TGI
Fc1cccc(C2SCc3nc4ccccc4n32)c1 (stereo unspecified)	> 100 µM
C[C@@H](Br)[C@@H]1CC[C@H]2c3[nH]c4ccccc4c3CCN2C1	77.8 µM
O=c1ccc2c(Cl)sc(Cl)c2[nH]1	> 100 µM
Cc1c(OCc2cccc3ccccc23)ccc2c(=O)cc(S)oc12	> 100 µM
Cc1cn(C2CC(/[N+]([O-])=N\Nc3ccc([N+](=O)[O-])cc3)C(CO)O2)c(=O)[nH]c1=O (stereo unspecified)	> 100 µM
CC1(C)CC(=O)C(/C=N/c2nc(-c3cccc([N+](=O)[O-])c3)cs2)=C(O)C1	44.7 µM

*Q* Which TGI is reported for this compound? COc1ccc2oc(=O)c(-c3nc4ccccc4s3)cc2c1
*A* 38.9 µM

*Q* Field entry: COc1ccccc1NC(=O)C(=O)C(C#N)CC(C)(C)C=O (stereo unspecified)
*A* > 100 µM

*Q* What would you report for COc1ccc([C@H]2C=C(c3cc(F)c(Cl)cc3Cl)N=c3s/c(=C\c4ccc(-c5ccc(Cl)cc5Cl)o4)c(=O)n32)cc1 ?
*A* > 100 µM

*Q* // same read-out, input: c1ccc2c(CCNC3=NCCO3)cccc2c1
*A* > 10 µM

*Q* Now try O=C1CCC(=O)C12CCc1ccccc12 .
*A* > 100 µM
